So I've got a bunch of sequences here, and I need their solubility in G1/S (log2) values.
- System: HeLa Kyoto;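 also: HeLa Kyoto cells arrested at G1/S by double thymidine block, proteins quantified by TMT10plex mass spectrometry in mild NP-40 versus SDS extracts, three biological replicates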
- Protocol notes: solubility in G1/S (NP-40 vs SDS abundance) (log2 ratio); higher = more soluble
- Particulars: cell cycle stage: G1/S
Give a plain numeric answer without units written out.

Reported solubility in G1/S (log2) for MAGAAEDARALFRAGVCAALEAWPALQIAVENGFGGVHSQEKAKWLGGAVEDYFMRNADLELDEVEDFLGELLTNEFDTVVEDGSLPQVSQQLQTMFHHFQRGDGAALREMASCITQRKCKVTATALKTARETDEDEDDVDSVEEMEVTATNDGAATDGVCPQPEPSDPDAQTIKEEDIVEDGWTIVRRKK [TSR2] : what is it? 0.00907

Reported solubility in G1/S (log2) for MGRLVAVGLLGIALALLGERLLALRNRLKASREVESVDLPHCHLIKGIEAGSEDIDILPNGLAFFSVGLKFPGLHSFAPDKPGGILMMDLKEEKPRARELRISRGFDLASFNPHGISTFIDNDDTVYLFVVNHPEFKNTVEIFKFEEAENSLLHLKTVKHELLPSVNDITAVGPAHFYATNDHYFSDPFLKYLETYLNLHWANVVYYSPNEVKVVAEGFDSANGINISPDDKYIYVADILAHEIHVLEKHTNMNLTQLKVLELDTLVDNLSIDPSSGDIWVGCHPNGQKLFVYDPNNPPSSEVLRIQNILSEKPTVTTVYANNGSVLQGSSVASVYDGKLLIGTLYHRALYCEL [PON2] : what is it? 0.315

Reported solubility in G1/S (log2) for MLSALARPASAALRRSFSTSAQNNAKVAVLGASGGIGQPLSLLLKNSPLVSRLTLYDIAHTPGVAADLSHIETKAAVKGYLGPEQLPDCLKGCDVVVIPAGVPRKPGMTRDDLFNTNATIVATLTAACAQHCPEAMICVIANPVNSTIPITAEVFKKHGVYNPNKIFGVTTLDIVRANTFVAELKGLDPARVNVPVIGGHAGKTIIPLISQCTPKVDFPQDQLTALTGRIQEAGTEVVKAKAGAGSATLSMAYAGARFVFSLVDAMNGKEGVVECSFVKSQETECTYFSTPLLLGKKGIEKNLGIGKVSSFEEKMISDAIPELKASIKKGEDFVKTLK [MDH2] : what is it? 0.383

Reported solubility in G1/S (log2) for MADGKAGDEKPEKSQRAGAAGGPEEEAEKPVKTKTVSSSNGGESSSRSAEKRSAEEEAADLPTKPTKISKFGFAIGSQTTKKASAISIKLGSSKPKETVPTLAPKTLSVAAAFNEDEDSEPEEMPPEAKMRMKNIGRDTPTSAGPNSFNKGKHGFSDNQKLWERNIKSHLGNVHDQDN [PCNP] : what is it? 0.559

Reported solubility in G1/S (log2) for MGAQFSKTAAKGEAAAERPGEAAVASSPSKANGQENGHVKVNGDASPAAAESGAKEELQANGSAPAADKEEPAAAGSGAASPSAAEKGEPAAAAAPEAGASPVEKEAPAEGEAAEPGSPTAAEGEAASAASSTSSPKAEDGATPSPSNETPKKKKKRFSFKKSFKLSGFSFKKNKKEAGEGGEAEAPAAEGGKDEAAGGAAAAAAEAGAASGEQAAAPGEEAAAGEEGAAGGDPQEAKPQEAAVAPEKPPASDETKAAEEPSKVEEKKAEEAGASAAACEAPSAAGPGAPPEQEAAPAEEPAAAAASSACAAPSQEAQPECSPEAPPAEAAE [MARCKS] : what is it? -0.36
